Target: SARS-CoV1 Spike [change] (SARS-CoV-1, UniProt P59594 14-667)
Assay: Octet BLI, IgG, monovalent
property.label: binding result

INSERT INTO results (binder, test_result) VALUES
  ('A-2 (antibody, V domains shown) VH: EVQLVESGGGLIQPGGSLRLSCAASGFTVSSNYMSWVRQAPGKGLEWVSIIYSGGSTYYADSVKGRFTISRDNSKNTLYLQMNSLRAEDTAVYYCARAPSGEYGDPIYYWGQGTLVTVSS VL: QSVLTQPPSASASLGASVKLTCTLSSGHSTYTIAWHQQQPEKGPRYLMKLNSDGSHSKGDGIPDRFSGSSSGAERYLTISSLQSEDEADYYCQTWGTGNHWVFGGGTKLTVL', 'no binding'),
  ('A-1 (antibody, V domains shown) VH: EVQLVESGGGVVQPGGSLRLSCAASGFAFSTYWMHWVRQAPGKGLVWVSRINGDGSGTNYADSVKGRFTISRDNAKSTLYLQMNSLRTEDTAVYYCTRTAGRGAYDFGRFDPWGQGTLVTVSS VL: DIVLTQTPLSLPVTPGEPASISCRSSQSLLHSNGYNYLDWYLQKAGQSPQLLVFLGSNRASGVPDRFSGSASGTDFTLKISRVEAEDVGVYYCMQALQIPITFGQGTRLEIK', 'no binding');

The reported measurements were obtained from patent US20260217797A1.
